Test system: LXRb:RXRa (NR concentration 270 nM, RXRa partner concentration 90 nM)
Assay: PBM binding z-score (relative to random genomic background probes); higher = stronger binding; sequences stand for … in GC…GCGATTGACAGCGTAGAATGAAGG
Label scheme for PBM binding z-score: lower than 0.8 is no (0), 0.8 and above is yes (1).

Check out these entries, answers already filled in.
>  <QUERY_SEQUENCE>
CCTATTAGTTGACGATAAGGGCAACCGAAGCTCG

>  <TARGET_ENTITY>
LXRb:RXRa (NR concentration 270 nM, RXRa partner concentration 90 nM)

>  <QUALITATIVE_LABEL>
no (0)

$$$$
>  <QUERY_SEQUENCE>
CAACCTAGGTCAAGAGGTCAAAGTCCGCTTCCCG

>  <TARGET_ENTITY>
LXRb:RXRa (NR concentration 270 nM, RXRa partner concentration 90 nM)

>  <QUALITATIVE_LABEL>
yes (1)

$$$$
>  <QUERY_SEQUENCE>
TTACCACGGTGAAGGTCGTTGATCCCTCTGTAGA

>  <TARGET_ENTITY>
LXRb:RXRa (NR concentration 270 nM, RXRa partner concentration 90 nM)

>  <QUALITATIVE_LABEL>
yes (1)

$$$$
>  <QUERY_SEQUENCE>
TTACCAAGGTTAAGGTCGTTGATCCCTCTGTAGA

>  <TARGET_ENTITY>
LXRb:RXRa (NR concentration 270 nM, RXRa partner concentration 90 nM)

>  <QUALITATIVE_LABEL>
yes (1)

$$$$
>  <QUERY_SEQUENCE>
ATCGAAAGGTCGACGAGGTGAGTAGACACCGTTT

>  <TARGET_ENTITY>
LXRb:RXRa (NR concentration 270 nM, RXRa partner concentration 90 nM)

>  <QUALITATIVE_LABEL>
yes (1)

$$$$

Determine whether this sequence has PBM binding z-score no lower than 0.8: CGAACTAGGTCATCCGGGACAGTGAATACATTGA yes (1)

Check this sequence for PBM binding z-score at or above 0.8: CCTGCTTGGTCAATGGTCAGCTAAAGCAGCTCGC no (0)

Exam item: decide whether the reported PBM binding z-score for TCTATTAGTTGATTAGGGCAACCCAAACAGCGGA is at least 0.8. yes (1)

Is it the case that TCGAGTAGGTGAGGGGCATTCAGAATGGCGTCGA has PBM binding z-score reaching or exceeding 0.8? yes (1)

# check: PBM binding z-score of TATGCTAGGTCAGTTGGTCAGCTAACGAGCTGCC is greater than or equal to 0.8 no (0)

Has GCATATAGGTAATACAAGGTGAAAGCCCGATTGT a recorded PBM binding z-score greater than or equal to 0.8? no (0)

Say whether CCTACTGGACCATCAGGTCATTGATATCAACGTT shows PBM binding z-score of 0.8 or more. yes (1)

Reported PBM binding z-score at or above 0.8? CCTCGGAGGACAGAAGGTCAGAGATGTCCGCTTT yes (1)

Confirm if PBM binding z-score reported for the sequence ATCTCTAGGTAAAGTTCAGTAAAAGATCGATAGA is 0.8 or above. yes (1)

Is PBM binding z-score for AGAATGAGGTTATACGTAGATCAAGGAAGAAAGT at or above 0.8? yes (1)

Given TCTTGTAGATCAGCAGGATAAGAAAGCTGGCCAA , state whether its PBM binding z-score is at least 0.8. no (0)

Has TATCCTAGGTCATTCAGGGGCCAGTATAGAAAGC a recorded PBM binding z-score greater than or equal to 0.8? yes (1)

Decide: is the reported value of PBM binding z-score for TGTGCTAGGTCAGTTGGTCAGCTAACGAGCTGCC equal to or greater than 0.8? no (0)

Exam item: decide whether the reported PBM binding z-score for AGTCAAACTTCACTAGGTAACGTAAGATTCAGCT is at least 0.8. no (0)

Determine whether this sequence has PBM binding z-score no lower than 0.8: CATACTGGGCCATTCAGAGGTCATTGATCATATG yes (1)

Hi team, for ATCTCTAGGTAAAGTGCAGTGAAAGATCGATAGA , is the recorded PBM binding z-score at or above 0.8? no (0)

Is PBM binding z-score at least 0.8? Consider TCTATTAGTTGATTAGGGCAACCGTAACAGCGGA no (0)

Can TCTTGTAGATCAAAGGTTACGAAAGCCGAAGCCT be said to have PBM binding z-score at or above 0.8? yes (1)

Cited source: the supplement of paper PMC6555819
